Values compiled from ChEMBL document CHEMBL1133623.

Provide the reported pIC50 of each item.
- Species: Homo sapiens
- experimental-details: Inhibitory potential of hdm2-binding peptides in a Human wild type p53/hdm2 (GST-hdm2 1-188) competition assay
- Format: functional
- assay-setup: Homo sapiens
Non-standard residues stand in square brackets, D forms with d. Residues, ends and D or L forms follow the SMILES beside them. Trp(6-Cl) = N[C@@H](Cc1c[nH]c2cc(Cl)ccc12)C(=O)O; Trp(6-F) = N[C@@H](Cc1c[nH]c2cc(F)ccc12)C(=O)O; Trp(6-Me) = Cc1ccc2c(C[C@H](N)C(=O)O)c[nH]c2c1; Pmp = N[C@@H](Cc1ccc(CP(=O)(O)O)cc1)C(=O)O; Ac3c = NC1(C(=O)O)CC1; Aib = CC(C)(N)C(=O)O
Numbers only, as −log10 of the molar value.

molecule=CC(=O)N[C@@H](CCC(N)=O)C(=O)N[C@@H](CCC(=O)O)C(=O)N[C@H](C(=O)N[C@@H](Cc1ccccc1)C(=O)N[C@@H](CO)C(=O)N[C@@H](CC(=O)O)C(=O)N[C@@H](CC(C)C)C(=O)N[C@@H](Cc1c[nH]c2ccccc12)C(=O)N[C@@H](CCCCN)C(=O)N[C@@H](CC(C)C)C(=O)N[C@@H](CC(C)C)C(=O)N1CCC[C@H]1C(N)=O)[C@@H](C)O experimental_value=5.06
molecule="CSCC[C@H](NC(=O)[C@H](Cc1ccccc1)NC(C)=O)C(=O)NC(C)(C)C(=O)N[C@@H](Cc1ccc(O)cc1)C(=O)N[C@@H](Cc1c[nH]c2ccccc12)C(=O)N[C@@H](CCC(=O)O)C(=O)NC1(C(=O)N[C@@H](CC(C)C)C(N)=O)CC1 (Ac-FM[Aib]YWE[Ac3c]L-NH2)" experimental_value=5.66

Here are 3 molecules. What values of pIC50 were reported for them?
1. CSCC[C@H](NC(=O)[C@H](Cc1ccccc1)NC(C)=O)C(=O)NC(C)(C)C(=O)N[C@@H](Cc1ccc(CP(=O)(O)O)cc1)C(=O)N[C@@H](Cc1c[nH]c2cc(Cl)ccc12)C(=O)N[C@@H](CCC(=O)O)C(=O)NC1(C(=O)N[C@@H](CC(C)C)C(N)=O)CC1 (Ac-FM[Aib][Pmp][Trp(6-Cl)]E[Ac3c]L-NH2)
2. CSCC[C@H](NC(=O)[C@H](Cc1ccccc1)NC(C)=O)C(=O)NC(C)(C)C(=O)N[C@@H](Cc1ccc(CP(=O)(O)O)cc1)C(=O)N[C@@H](Cc1c[nH]c2cc(F)ccc12)C(=O)N[C@@H](CCC(=O)O)C(=O)NC1(C(=O)N[C@@H](CC(C)C)C(N)=O)CC1 (Ac-FM[Aib][Pmp][Trp(6-F)]E[Ac3c]L-NH2)
3. CSCC[C@H](NC(=O)[C@H](Cc1ccccc1)NC(C)=O)C(=O)NC(C)(C)C(=O)N[C@@H](Cc1ccc(CP(=O)(O)O)cc1)C(=O)N[C@@H](Cc1c[nH]c2cc(C)ccc12)C(=O)N[C@@H](CCC(=O)O)C(=O)NC1(C(=O)N[C@@H](CC(C)C)C(N)=O)CC1 (Ac-FM[Aib][Pmp][Trp(6-Me)]E[Ac3c]L-NH2)

Outgoing:
8.30
7.85
8.00
